Biological target: CXCR2 (Homo sapiens, UniProt P25025)
Sequence (P25025 1-360): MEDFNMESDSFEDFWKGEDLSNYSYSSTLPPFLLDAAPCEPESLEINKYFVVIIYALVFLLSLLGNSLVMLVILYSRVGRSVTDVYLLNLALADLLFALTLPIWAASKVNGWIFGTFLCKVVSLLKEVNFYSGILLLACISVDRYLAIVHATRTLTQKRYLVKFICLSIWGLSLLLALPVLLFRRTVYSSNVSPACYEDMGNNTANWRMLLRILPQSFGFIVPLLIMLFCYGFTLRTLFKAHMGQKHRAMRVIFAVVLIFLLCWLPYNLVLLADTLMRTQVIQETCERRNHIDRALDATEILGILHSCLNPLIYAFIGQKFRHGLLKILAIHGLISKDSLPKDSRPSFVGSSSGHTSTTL
Assay: Human Neutrophil Chemotaxis Assay
Type: cell-based
Design: Human neutrophils were purified from freshly drawn human whole blood; endogenous in cells; host or cells: primary human neutrophils from fresh whole blood
Conditions: Table 12; human neutrophils migrating towards the CXCR2 ligand GROα; read-out: IC50
endpoint_name: IC50 (nM)
// units = nM; emit number, no label

The cases that follow already have their IC50 on record.
# molecule, IC50 / nM
data = [
    ("COc1cn(C)nc1[C@H](Nc1c(Nc2ccnc(C(=O)N(C)C(C)C)c2O)c(=O)c1=O)C(C)(C)C", 272),
    ("CCc1cn(C)nc1[C@H](Nc1c(Nc2ccnc(C(=O)N(C)C)c2O)c(=O)c1=O)C(C)(C)C", 52.6),
    ("Cc1cn(C)nc1[C@H](Nc1c(Nc2ccnc(C(=O)N3CCN(C)CC3)c2O)c(=O)c1=O)C1(C)CCCC1", 2160),
    ("Cc1cn(C)nc1[C@@H](Nc1c(Nc2ccnc(C(=O)N(C)C)c2O)c(=O)c1=O)C1(C)CCCC1", 7310),
    ("CN(C)C(=O)c1nccc(Nc2c(N[C@H](c3nn(C)cc3Cl)C3(C)CCCC3)c(=O)c2=O)c1O", 2750),
    ("Cc1cn(C)nc1[C@H](Nc1c(Nc2ccnc(C(=O)N(C)C)c2O)c(=O)c1=O)C(C)(C)C", 141),
    ("CN(C)C(=O)c1nccc(Nc2c(N[C@@H](c3nn(C)cc3Cl)C3(C)CCCC3)c(=O)c2=O)c1O", 103),
    ("CCc1cn(C)nc1[C@H](Nc1c(Nc2ccnc(C(=O)N(C)C)c2O)c(=O)c1=O)C1(C)CCC1", 142),
    ("Cc1nc([C@H](Nc2c(Nc3ccnc(C(=O)N(C)C)c3O)c(=O)c2=O)C2(C)CCC2)c(C)s1", 1010),
    ("CN(C)C(=O)c1nccc(Nc2c(N[C@@H](c3nn(C)cc3C#N)C3(C)CCCC3)c(=O)c2=O)c1O", 4350),
]

Which IC50 is listed for CN(C)C(=O)c1nccc(Nc2c(N[C@@H](c3nn(C)cc3C3CC3)C3(C)CCCC3)c(=O)c2=O)c1O ?
4410

Which IC50 is listed for CC(C)N(C)C(=O)c1nccc(Nc2c(N[C@@H](c3nn(C)cc3Cl)C3(C)CCCC3)c(=O)c2=O)c1O ?
175

Which IC50 is listed for Cc1cn(C)nc1[C@H](Nc1c(Nc2ccnc(C(=O)N3CCOCC3)c2O)c(=O)c1=O)C1(C)CCCC1 ?
586

Which IC50 is listed for COc1sc(C)nc1[C@H](Nc1c(Nc2ccnc(C(=O)N(C)C)c2O)c(=O)c1=O)C1(C)CCCC1 ?
69.9

Which IC50 is listed for CCC1([C@@H](Nc2c(Nc3ccnc(C(=O)N(C)C)c3O)c(=O)c2=O)c2nn(C)cc2C)CCC1 (single isomer, unassigned) ?
255
